- target_entity: DRB1*0301 (Homo sapiens, UniProt P01903+P01911, A100K/A102G/A103R/A169T/F55Y/I96L/K41T/L162R/M171V/P40S/Q125H/Q178H/Q39Y/R42S/S66N/T106N/T262R/W38E/Y61H)
- Sequence (P01903 26-254, other chains not shown): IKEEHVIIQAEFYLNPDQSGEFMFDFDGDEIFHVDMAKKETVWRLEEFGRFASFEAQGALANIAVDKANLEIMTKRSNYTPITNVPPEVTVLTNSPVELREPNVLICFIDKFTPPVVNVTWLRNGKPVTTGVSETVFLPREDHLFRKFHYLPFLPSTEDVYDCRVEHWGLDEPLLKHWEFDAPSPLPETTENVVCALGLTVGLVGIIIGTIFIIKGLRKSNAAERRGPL
- test: biochemical
parameter: IC50 (nM)

smiles_input=CC[C@H](C)[C@H](NC(=O)[C@H](C)NC(=O)[C@H](CC(N)=O)NC(=O)[C@H](C)N)C(=O)N[C@@H](Cc1ccccc1)C(=O)N[C@@H](CCCCN)C(=O)N[C@@H](CC(C)C)C(=O)N[C@H](C(=O)N[C@@H](Cc1ccc(O)cc1)C(=O)N[C@@H](CCC(N)=O)C(=O)N[C@@H](CC(N)=O)C(=O)N[C@@H](CCCCN)C(=O)N[C@H](C(=O)N[C@H](C(=O)N[C@@H](CCCCN)C(=O)N[C@H](C(=O)N[C@@H](CCC(N)=O)C(=O)O)C(C)C)C(C)C)C(C)C)[C@@H](C)O parameter=IC50 unit_of_measure=nM result_number=222
smiles_input=CC[C@H](C)[C@H](NC(=O)[C@H](Cc1ccc(O)cc1)NC(=O)CNC(=O)[C@H](CC(C)C)NC(=O)[C@H](CCCCN)NC(=O)[C@H](Cc1c[nH]cn1)NC(=O)[C@H](CC(C)C)NC(=O)CNC(=O)[C@H](CCC(=O)O)NC(=O)CNC(=O)[C@H](CCC(=O)O)NC(=O)[C@@H](NC(=O)CNC(=O)[C@H](CO)NC(=O)[C@H](Cc1ccc(O)cc1)NC(=O)[C@H](CO)NC(=O)[C@@H](N)CC(N)=O)C(C)C)C(=O)O parameter=IC50 unit_of_measure=nM result_number=4420
